TARGET_OR_SYSTEM: XIAP BIR3 domain (Homo sapiens)
Construct: fluorescent probe 4 and the XIAP BIR3 domain (Sino Biological, Beijing, China) were used for all measurements; purchased Sino Biological, Beijing, China
Sequence (P98170 252-356 limits assumed): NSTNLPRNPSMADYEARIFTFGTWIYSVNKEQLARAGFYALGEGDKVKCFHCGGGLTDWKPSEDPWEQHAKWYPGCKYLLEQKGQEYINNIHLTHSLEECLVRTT
EXPERIMENT_DESCRIPTION: Fluorescence polarization inhibition (competition) assay
Assay type: binding
ASSAY_CONTEXT: XIAP BIR3 50 nM, fluorescent probe 4 2 nM; read-out: EC50
pEC50: −log10 of the molar value.
TEST_READOUT: pEC50

>>> result_number("CN[C@@H](C)C(=O)N[C@H](C(=O)N1CCC[C@H]1C(=O)NC(Cc1ccccc1)P(=O)(c1ccccc1)c1ccccc1)C1CCCCC1 (stereo partly drawn)")
5.88
>>> result_number("CCc1ccc(OP(=O)(Oc2ccc(CC)cc2)C(C)NC(=O)[C@@H]2CCCN2C(=O)[C@@H](NC(=O)[C@H](C)NC)C(C)C)cc1 (stereo partly drawn)")
4.47
>>> result_number("CN[C@@H](C)C(=O)N[C@H](C(=O)N1CCC[C@H]1C(=O)NC(Cc1ccccc1)P(=O)(Oc1ccccc1)Oc1ccccc1)C1CCCCC1 (stereo partly drawn)")
6.13

The reported measurements were obtained from paper PMC7497679.
